Kindly supply the reported pIC50 values for the records listed here.
# Test System: TrkA (Homo sapiens)
# Sequence (P04629 440-796 limits assumed): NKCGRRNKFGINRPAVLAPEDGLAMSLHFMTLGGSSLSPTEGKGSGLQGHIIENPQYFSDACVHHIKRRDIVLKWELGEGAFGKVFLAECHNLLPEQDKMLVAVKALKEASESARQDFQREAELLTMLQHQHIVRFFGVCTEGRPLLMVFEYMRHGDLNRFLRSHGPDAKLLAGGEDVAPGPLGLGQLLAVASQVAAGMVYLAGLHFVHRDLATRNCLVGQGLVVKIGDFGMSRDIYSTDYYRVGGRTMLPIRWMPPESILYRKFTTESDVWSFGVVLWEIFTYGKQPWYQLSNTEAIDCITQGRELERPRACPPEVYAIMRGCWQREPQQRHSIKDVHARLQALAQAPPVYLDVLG
pIC50: −log10 of the molar value. Where a name gives a salt, the structure may show the parent alone.

Noted for COCCCc1cc(Cl)c(Cl)cc1NC(=O)Nc1c(C)c(C(=O)NC2CCOCC2)nn1-c1ccccc1 : its pIC50 reads > 7.00

Reported pIC50 ( COCCCc1cc(Cl)c(Cl)cc1NC(=O)Nc1c(C)c(C2CCN(C)CC2)nn1-c1ccccc1 ) = > 7.00

Entry COCCCc1cc(Cl)c(Cl)cc1NC(=O)Nc1c(C)c(OCC2CCNCC2)nn1-c1ccccc1 [Example 41, hydrochloride] ; pIC50 = > 7.00

Entry COCCCc1cc(Cl)c(Cl)cc1NC(=O)Nc1c(C)c(OCC2(F)CCNCC2)nn1-c1ccccc1 [Example 45, hydrochloride] , pIC50 reported as > 7.00

Form field pIC50, entry COCCOc1ncc(C(F)(F)F)cc1NC(=O)Nc1c(C)c(-c2cnn(C)c2)nn1-c1ccccc1 : 6.00 to 7.00

For reference, reported pIC50 for COCCCc1cc(Cl)c(Cl)cc1NC(=O)Nc1c(C)c(OC[C@@H]2CNCCO2)nn1-c1ccccc1 [Example 38, hydrochloride] stands at > 7.00

For record COCCCc1cc(Cl)c(Cl)cc1NC(=O)Nc1c(C)c(OC[C@@H]2CCCNC2)nn1-c1ccccc1 [Example 47, hydrochloride] the listed pIC50 is > 7.00

// pIC50 lookup, molecule = COCCOc1cc(Cl)c(Cl)cc1NC(=O)Nc1c(C)c(-c2cnn(C)c2)nn1-c1ccccc1 , result: > 7.00

Entry CNC(=O)c1nn(-c2ccccc2)c(NC(=O)Nc2cc(C(F)(F)F)ccc2CCCOC)c1C ; pIC50 = > 7.00

Record CNC(=O)c1nn(-c2ccccc2)c(NC(=O)Nc2cc(Cl)c(Cl)cc2CCCOC)c1C , field pIC50: > 7.00

The molecule COCCOc1cc(Cl)c(F)cc1NC(=O)Nc1c(C)c(-c2cnn(C)c2)nn1-c1ccccc1 showed pIC50 equal to > 7.00

The value of pIC50 measured for the molecule COCCCc1cc(Cl)c(Cl)cc1NC(=O)Nc1c(C)c(OCC2CCN(C)CC2)nn1-c1ccccc1 turned out to be > 7.00

The reported pIC50 of the molecule COCCOc1nc(C)c(Cl)cc1NC(=O)Nc1c(C)c(-c2cnn(C)c2)nn1-c1ccccc1 was > 7.00

Measured pIC50, COCCCc1cc(Cl)c(Cl)cc1NC(=O)Nc1c(C)c(OC[C@H]2CCCNC2)nn1-c1ccccc1 [Example 46, hydrochloride] : > 7.00

Per the record, COCCCc1cc(Cl)c(Cl)cc1NC(=O)Nc1c(C)c(OC[C@@H]2CN(C)CCO2)nn1-c1ccccc1 has pIC50 of > 7.00

Briefly, pIC50 measured for COCCCc1cc(Cl)c(Cl)cc1NC(=O)Nc1c(C)c(OCCN2CCNCC2)nn1-c1ccccc1 [Example 39, dihydrochloride] : > 7.00

Documented pIC50 of COCCCc1cc(Cl)c(Cl)cc1NC(=O)Nc1c(C)c(OC[C@H]2CN(C)CCO2)nn1-c1ccccc1 : > 7.00

pIC50 in this record for COCCCc1cc(Cl)c(Cl)cc1NC(=O)Nc1c(C)c(OC[C@H]2CCCN(C)C2)nn1-c1ccccc1 : > 7.00

Short answer for COCCCc1cc(Cl)c(Cl)cc1NC(=O)Nc1c(C)c(OCCN2CCN(C(=O)OC(C)(C)C)CC2)nn1-c1ccccc1 : pIC50 was > 7.00

Note to self: pIC50 recorded for COCCOc1cc(Cl)c(Cl)cc1NC(=O)Nc1c(C)c(-c2ccc(=O)n(C)c2)nn1-c1ccccc1 was > 7.00

get_value(item= COCCCc1cc(Cl)c(Cl)cc1NC(=O)Nc1c(C)c(OCC2CCCN2)nn1-c1ccccc1 (stereo not drawn) [Example 43, hydrochloride] , readout=pIC50) returns > 7.00
